Where do the numbers come from? From PubChem BioAssay AID1159580.

- test_summary: chemical genetic growth profiling, strain panel (AID 1159580);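 also: tested at 20 µM; growth read once vehicle control cultures reached saturation at 30 °C; lower values mean less growth of the strain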
- test_conditions: S. cerevisiae deletion strains, growth OD, locus YOR083W, strain WHI5
Out of some 5,500 compounds screened, about 2,000 (36%) were called active. About 18% were inconclusive and are not listed. Rule as the data show it: active = normalized growth mostly below about 0.91 (no sharp cut-off); inconclusive = no clear call, values can overlap the other calls; inactive = mostly above about 0.92. Some of the results follow.
Possible outcomes: active, inactive

>  <compound>
CSc1ccc2c(c1)N(CCC1CCCCN1C)c1ccccc1S2 (configuration not stated)

>  <class_name>
inactive

$$$$
>  <compound>
C/C=C/C(=O)N(CC)c1ccccc1C

>  <class_name>
inactive

$$$$
>  <compound>
O=c1cc(-c2ccccc2)oc2cccc(O)c12

>  <class_name>
active

$$$$
>  <compound>
CC1=C2[C@H]3OC(=O)[C@@H](C)[C@@H]3CC[C@@]2(C)C=CC1=O

>  <class_name>
inactive

$$$$
>  <compound>
C[C@H](N)[C@H](O)c1cccc(O)c1

>  <class_name>
inactive

$$$$
>  <compound>
CCCCCC1C(=O)CCC1CC(=O)O (configuration not stated)

>  <class_name>
inactive

$$$$
>  <compound>
O=C(O)CCC(=O)Nc1ccc(S(=O)(=O)Nc2nccs2)cc1

>  <class_name>
inactive

$$$$
